- PROTOCOL_SUMMARY: Chemical and optical properties of NIR dyes (Table 1)
- Assay type: physicochemical
READOUT: λem (nm)
Number only, in nm; omit the unit.

Recorded λem (nm), per entry:
MOLECULE: CC1(C)C(/C=C/C=C/C=C/C=C2\N(CCCCS(=O)(=O)O)c3ccc4ccccc4c3C2(C)C)=[N+](CCCCS(=O)(=O)[O-])c2ccc3ccccc3c21
OUTPUT_UNIT: nm
λem (nm): 807
--
MOLECULE: CC1(C)C(/C=C/C2=C(Oc3ccc(S(=O)(=O)O)cc3)C(=C/C=C3/N(CCCCS(=O)(=O)O)c4ccc(S(=O)(=O)[O-])cc4C3(C)C)/CCC2)=[N+](CCCCCC(=O)O)c2ccc(S(=O)(=O)O)cc21 [IR800CW]
OUTPUT_UNIT: nm
λem (nm): 786

Req: λem (nm) for CC1(C)C(=CC=C2CCCC(C=CC3=[N+](CCC[N+](C)(C)C)c4ccc(S(=O)(=O)O)cc4C3(C)C)=C2Oc2ccc(CCC(=O)O)cc2)N(CCC[N+](C)(C)C)c2ccc(S(=O)(=O)O)cc21 [ZW80o] ?
Resp: 772

Req: λem (nm) for "CC1(C)C(/C=C/C2=C(Oc3ccc(C[C@H](NC(=O)c4ccc(NCc5cnc6nc(N)[nH]c(=O)c6n5)cc4)C(=O)[O-])cc3)C(=C/C=C3\N(CCCCS(=O)(=O)[O-])c4ccc(S(=O)(=O)[O-])cc4C3(C)C)/CCC2)=[N+](CCCCS(=O)(=O)[O-])c2ccc(S(=O)(=O)[O-])cc21.[H+].[H+].[H+].[H+]" ?
Resp: 776
